compounds and their reported IC50
Target protein (sequence): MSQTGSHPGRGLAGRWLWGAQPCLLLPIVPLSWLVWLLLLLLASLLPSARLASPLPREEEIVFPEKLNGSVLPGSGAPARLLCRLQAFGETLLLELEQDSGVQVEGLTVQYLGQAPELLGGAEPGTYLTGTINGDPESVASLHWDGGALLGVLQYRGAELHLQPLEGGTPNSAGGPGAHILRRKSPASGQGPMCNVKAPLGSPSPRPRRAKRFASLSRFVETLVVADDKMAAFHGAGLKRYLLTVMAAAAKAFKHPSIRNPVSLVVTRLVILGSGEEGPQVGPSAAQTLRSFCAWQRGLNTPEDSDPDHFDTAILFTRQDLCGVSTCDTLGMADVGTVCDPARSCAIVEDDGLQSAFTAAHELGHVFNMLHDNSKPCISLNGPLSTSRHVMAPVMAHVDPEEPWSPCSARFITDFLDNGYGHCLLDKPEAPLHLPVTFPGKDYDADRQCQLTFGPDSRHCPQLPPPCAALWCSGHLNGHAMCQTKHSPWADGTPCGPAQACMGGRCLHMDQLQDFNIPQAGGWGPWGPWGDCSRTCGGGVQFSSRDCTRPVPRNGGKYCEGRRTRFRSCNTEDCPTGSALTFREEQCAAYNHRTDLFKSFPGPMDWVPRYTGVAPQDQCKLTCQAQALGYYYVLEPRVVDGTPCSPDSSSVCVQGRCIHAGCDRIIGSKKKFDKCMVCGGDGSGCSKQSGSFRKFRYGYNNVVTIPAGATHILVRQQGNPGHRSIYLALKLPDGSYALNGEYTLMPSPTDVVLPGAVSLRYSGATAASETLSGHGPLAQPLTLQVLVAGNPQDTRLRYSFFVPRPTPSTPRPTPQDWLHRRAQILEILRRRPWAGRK
Measured property: IC50

>>> assay_result("COc1ccc(C2=NNC3(S2)C(=O)N(c2ccccc2C)c2ccc(C)cc23)cc1 (stereo not drawn)")
"10.5 µM"
>>> assay_result("CCCc1ccc2c(c1)NC(=O)C21NN=C(c2ccc(OC)cc2)S1 (stereo not drawn)")
"> 22 µM"
>>> assay_result("COc1ccc(C2=NNC3(S2)C(=O)N(Cc2ccccc2)c2ccccc23)cc1 (stereo not drawn)")
"> 22 µM"
